- Test system: OVCAR-8 ovarian
- testMethodNotes: NCI tumour cell line growth inhibition, 48 h
measurementLabel: TGI

# return TGI for each item in the list
1. CN(C)C(=S)N=C(Nc1ccccc1)Nc1ccccc1
2. COc1cc2cc(OC)c3cc4c(cc3c2c(OC)c1OC)OCO4

> 100 µM
> 100 µM

----------
- System: CCRF-CEM leukemia
- testMethodNotes: NCI tumour cell line growth inhibition, 48 h
measurementLabel: TGI

See these solved cases before continuing.
| compound | TGI |
| --- | --- |
| CC(C)CCS(=O)(=O)OCCCCOS(=O)(=O)CCC(C)C | > 100 µM |
| NC(=O)NCCCC(NC(=O)OCCCCn1ccc(=O)[nH]c1=O)C(=O)O (configuration not stated) | > 100 µM |
| c1ccc(N=c2sc3ccccc3nc2Nc2ccccc2)cc1 | > 100 µM |
| CC[C@@H]1CC[C@@H]2[C@H](CC[C@]3(C)[C@@H](OC(C)=O)CC[C@@H]23)[C@H]1COC(C)=O | 41.2 µM |
| COC(=O)C1SC(SC)=NC12c1ccccc1Nc1ccccc12 (configuration not stated) | > 100 µM |
| c1csc(-c2ccc(-c3cccc4nsnc34)s2)c1 | 69.3 µM |

# return TGI for each item in the list
1. COC(=O)c1ccccc1CC1Cc2ccc3c(c2C1=O)CCCC3 (configuration not stated)
2. O=[N+]([O-])c1cccc(-c2csc(NNC3=NC/C(=C/c4ccc5c(c4)OCO5)S3)n2)c1
3. COC(CCC[N+](C)(C)C)CC[N+](C)(C)C (configuration not stated)
4. CCCCCCCCCCCCCCNC(=O)CCC(NC(=O)c1ccc(N(C)Cc2cnc3nc(N)nc(N)c3n2)cc1)C(=O)NCCCCCCCCCCCCCC (configuration not stated)
5. COc1ccc2cc(NC(=O)N/N=C\c3ccc([N+](=O)[O-])cc3)ccc2c1
6. Nc1c(C(=O)c2cccc(CCS(N)(=O)=O)c2)cnn1-c1ccc(F)cc1

["> 86.5 µM", "> 100 µM", "> 100 µM", "> 31.6 µM", "> 100 µM", "> 25 µM"]

----------
- Test system: TK-10 renal
- testMethodNotes: NCI tumour cell line growth inhibition, 48 h
measurementLabel: TGI

See these solved cases before continuing.
| compound | TGI |
| --- | --- |
| CCOC(=O)/C=C/CC(C)(C)CCOC(C)=O | > 10 µM |
| C1=C2/CC[C@H](Sc3ccccc3)C2C2(CCCCC/1)OCCO2 (stereo partly specified) | > 100 µM |
| O=C1/C(=C/c2ccccc2)N=C2Sc3c(nc[nH]c3=O)N12 | > 100 µM |
| CN(C)N=Nc1ccc(C(N)=O)cc1 | > 100 µM |
| COC(=O)CC[N+]1=CCC(c2ccccc2)(c2ccccc2)O1 | > 100 µM |

Could you now consider this next compound?
Item CCCN(C(=O)c1ccccc1)C(C#N)c1ccc(C(C#N)N(CCC)C(=O)c2ccccc2)cc1 (stereo unspecified) has what recorded TGI?
> 100 µM

----------
Provide the recorded TGI for the entries that follow.
- Tested on: UO-31 renal
- testMethodNotes: NCI tumour cell line growth inhibition, 48 h

See these solved cases before continuing.
| molecule | measurementLabel | result |
| --- | --- | --- |
| O=C1CSC(c2ccc(Cl)cc2)N1c1ccc(Oc2ccc(Cl)cc2)c(Cl)c1 (stereo unspecified) | TGI | 21 µM |
| C=C(C)C(OC)C(O)CC1(C)CC(O)CC(C)(C2CCC3OC(C4(C)CCC(Br)C(C)(C)O4)CCC3(C)O2)O1 (stereo unspecified) | TGI | 34.4 µM |
| COC1/C=C/OC2(C)Oc3c(C)c(O)c4c(O)c(c(/C=N/Nc5ccc([N+](=O)[O-])cc5[N+](=O)[O-])c(O)c4c3C2=O)NC(=O)C(C)=C/C=C/C(C)C(O)C(C)C(O)C(C)C(OC(C)=O)C1C (stereo unspecified) | TGI | 23.6 µM |
| FC(F)(F)c1cccc(Nc2nc(-c3ccccc3)nc3ncccc23)c1 | TGI | 21.8 µM |
| Cn1cc(C2=C(c3c4n(c5ccccc35)CCCCC4)C(=O)NC2=O)c2ccccc21 | TGI | > 25 µM |
| O=[N+]([O-])c1ccc2c(c1)c(OCc1ccccc1)nn2Cc1ccccc1 | TGI | > 100 µM |

# return TGI for each item in the list
1. O=C1C=CC(=O)c2c1ccc1c3ccccc3n(CCCCCCCCCCCCn3c4ccccc4c4ccc5c(c43)C(=O)C=CC5=O)c21
2. O=C(CC(=O)c1cccc2ccccc12)C(=O)Nc1ccc(Cl)cc1

1. > 100 µM
2. > 100 µM

# return TGI for each item in the list
1. CCOC(=O)C(SCCO)C(C(=O)OCC)n1cnc2c(=O)[nH]c(NC(C)=O)nc21 (stereo unspecified)
2. C[C@@H]1CC[C@]2(C(=O)O)CC[C@]3(C)C(=CC[C@@H]4[C@@]5(C)CC[C@H](O)C(C)(C)[C@@H]5CC[C@]43C)[C@@H]2[C@]1(C)O
3. COc1cc2c(c3oc4c(O)cccc4c(=O)c13)CC(C(C)(O)CO)O2 (stereo unspecified)

1. > 100 µM
2. 23.5 µM
3. > 100 µM

# return TGI for each item in the list
1. C1CN(c2nc3c(nnc4nc(N5CCOCC5)sc43)s2)CCO1
2. CN(C)C(=S)N=C(Nc1ccccc1)Nc1ccccc1
3. COc1cccc(C2c3cc4c(cc3OC(C)(N3CCCC3)C2C)OCO4)c1O (stereo unspecified)
4. O=[N+]([O-])c1ccc2c(c1)/C(=N/N=C1c3ccccc3Cc3ccccc31)c1cc([N+](=O)[O-])cc([N+](=O)[O-])c1-2
5. Cc1cc(N(CCC#N)CCC#N)ccc1N=Nc1ccc(S(N)(=O)=O)cc1

1. > 100 µM
2. > 100 µM
3. 56.4 µM
4. 4.41 µM
5. > 100 µM

----------
Provide the recorded TGI for the entries that follow.
- System: MOLT-4 leukemia
- testMethodNotes: NCI tumour cell line growth inhibition, 48 h

See these solved cases before continuing.
| itemSmiles | result |
| --- | --- |
| Nc1nc(-n2c(-c3ccccc3)nc3c(Br)cc(Br)cc3c2=O)nnc1-c1cccc(Cl)c1Cl | > 100 µM |
| Cc1ccc(Cl)c2c(N=Nc3ccccc3[N+](=O)[O-])c(O)[nH]c12 | > 100 µM |
| ClCCN1CCC2(CC1)SSC1(CCN(CCCl)CC1)S2 | > 100 µM |
| c1csc(-c2ccc(-c3cccc4nsnc34)s2)c1 | 39.2 µM |

# return TGI for each item in the list
1. CCN1/C(=C\c2cc[n+](CC)c3ccccc23)C=Cc2ccccc21
2. [N-]=[N+]=NC[C@H]1OCO[C@H](CN=[N+]=[N-])[C@@H](OCCOCCCl)[C@@H]1OCCOCCCl

["4.44 µM", "> 100 µM"]

----------
- Test system: OVCAR-8 ovarian
- testMethodNotes: NCI tumour cell line growth inhibition, 48 h
measurementLabel: TGI

See these solved cases before continuing.
| compound | result |
| --- | --- |
| COC(=O)C1SC(SC)=NC12c1ccccc1Nc1ccccc12 (stereo not drawn) | > 100 µM |
| Cc1cc(Cc2cc(C)c(N)cc2N)c(N)cc1N | > 100 µM |

Item CCOC(=O)/C=C/CC(C)(C)CCOC(C)=O has what recorded TGI?
> 10 µM
